# System: HOP-62 NSCLC
# Assay Notes: NCI tumour cell line growth inhibition, 48 h; in the data active means GI50 below about 0.43 µM; inactive means the rest
Possible outcomes: YES for active, NO for inactive

# Molecule, Label
data = [
    ("O=C(Nc1cccc([N+](=O)[O-])c1)c1ccc2ccccc2c1O", "NO"),
    ("COC(=O)c1oc2c(O)c(OC)c(Br)cc2c1C", "NO"),
    ("COc1ccc(/C(=N\\O)c2cc(OC)c(OC)c(OC)c2)c(OC)c1N", "NO"),
    ("C/C1=C\\CC[C@@]2(C)O[C@@H]2C[C@@H]2[C@H](C/C(C)=C/CC1)OC(=O)C21CCN=N1 (stereo not given in full)", "NO"),
    ("N#Cc1c(NC(=O)c2cccc3ccccc23)sc2c1CCCC2", "YES"),
]

---

# System: MOLT-4 leukemia
# Assay Notes: NCI tumour cell line growth inhibition, 48 h

# Smiles Record, Test System, Relation Symbol, TGI, µM
records = [
    ("C=C(CN(C)C)C(=O)c1cc(C)ccc1C", "MOLT-4 leukemia", "=", 3.86),
    ("C#C[C@@]1(O)CCCC2=CC(=O)C[C@]21C", "MOLT-4 leukemia", ">", 100),
    ("Oc1ccc2ccccc2c1C(c1ccc(Cl)cc1)c1c(O)ccc2ccccc12", "MOLT-4 leukemia", "=", 17.5),
]

---

# System: OVCAR-4 ovarian
# Assay Notes: NCI tumour cell line growth inhibition, 48 h
Observable: TGI

# Compound, Test System, Data Value
measured = [
    ("Cc1cc(C)nc(NS(=O)(=O)c2ccc(NNC(=O)c3cccc4c(NNc5ccc(S(=O)(=O)Nc6nc(C)cc(C)n6)cc5)c5ccccc5nc34)cc2)n1", "OVCAR-4 ovarian", "68 µM"),
    ("CCOC(=O)/C=C(\\C(=O)OCC)n1cnc2c(N)ncnc21", "OVCAR-4 ovarian", "> 48.7 µM"),
    ("Fc1ccc(NCn2nc(COc3ccccc3Cl)n(/N=C/c3ccc(-c4ccc(Cl)cc4Cl)o3)c2=S)cc1Cl", "OVCAR-4 ovarian", "> 100 µM"),
    ("O=C1c2ccccc2C(=O)c2c1oc(=O)c1ccccc21", "OVCAR-4 ovarian", "3.56 µM"),
    ("O=NNc1cnccn1", "OVCAR-4 ovarian", "> 1250 µM"),
    ("Cc1ccc(NC(=O)C(=O)C2NC(=S)NC2=O)c([N+](=O)[O-])c1 (stereo not drawn)", "OVCAR-4 ovarian", "> 100 µM"),
    ("COCOCc1cc(OCc2ccccc2)c(OC)cc1Br", "OVCAR-4 ovarian", "> 100 µM"),
    ("CC(C)[Si](OCC1CC(C[C@H]2CC(C[C@H]3C[C@@H](CO[Si](C(C)C)(C(C)C)C(C)C)OC(C)(C)O3)OC(C)(C)O2)OC(C)(C)O1)(C(C)C)C(C)C (stereo partly drawn)", "OVCAR-4 ovarian", "> 100 µM"),
    ("COc1ccc(N=Nc2c(C)c(C#N)c(=S)n(C3OC(COC(C)=O)C(OC(C)=O)C(OC(C)=O)C3OC(C)=O)c2-c2ccccc2)cc1 (stereo not drawn)", "OVCAR-4 ovarian", "12.1 µM"),
    ("COc1ccc(/C(=N\\O)c2cc(OC)c(OC)c(OC)c2)c(OC)c1N", "OVCAR-4 ovarian", "> 100 µM"),
    ("CC1(C)CCCCCC(C)(CCCCCCCCCCCO)C1=O (stereo not drawn)", "OVCAR-4 ovarian", "28.8 µM"),
    ("CN(C)c1ccc(/C=C/c2ccnc3ccccc23)cc1N", "OVCAR-4 ovarian", "32.9 µM"),
    ("CCOc1ccc(N=Nc2ccc3oc(=O)c(/C(C)=N\\NC(=O)CC(=O)Nc4ccc(Cl)cc4)cc3c2)cc1", "OVCAR-4 ovarian", "37.9 µM"),
    ("COc1cc(C2c3[nH]c4ccc(F)cc4c3C[C@H]3COC(=O)N23)cc(OC)c1O (stereo partly drawn)", "OVCAR-4 ovarian", "79.7 µM"),
    ("CCCCCCCCCCCCCC(=O)OC(/C=C/C(C)C)C(O)C(O)C(OC)C(=O)NC1CCCCNC1=O (stereo not drawn)", "OVCAR-4 ovarian", "6.76 µM"),
    ("O=C(Nc1ccc(Cl)cc1)c1ccc([N+](=O)[O-])o1", "OVCAR-4 ovarian", "8.31 µM"),
    ("COc1cc(C(=O)/C=C/c2c(-c3ccc(F)cc3)nc3ncccn23)cc(OC)c1OC", "OVCAR-4 ovarian", "> 100 µM"),
    ("O=C1/C(=C/c2ccc(Cl)cc2)CN(Cc2cn(CCNc3ccnc4cc(Cl)ccc34)nn2)C/C1=C\\c1ccc(Cl)cc1", "OVCAR-4 ovarian", "1.81 µM"),
    ("COC(=O)c1cc(-c2ccc(-c3ccc(O)cc3)cc2)cc(-c2ccc(-c3ccc(O)cc3)cc2)c1", "OVCAR-4 ovarian", "35.9 µM"),
    ("CC(C)c1ccc2c(c1)C=C1OC(=O)[C@]3(C)CCC[C@@]2(C)C13 (stereo partly drawn)", "OVCAR-4 ovarian", "> 100 µM"),
    ("COc1cc2c3c(n(CCCNC(=O)OCC4c5ccccc5-c5ccccc54)c(=O)c2cc1OC)-c1cc2c(cc1C3=O)OCO2", "OVCAR-4 ovarian", "> 100 µM"),
    ("CC(C)CCNC(=O)c1ccc(CNC(=O)/C=C/c2csc(-c3ccccc3)n2)cc1", "OVCAR-4 ovarian", "> 100 µM"),
    ("O=C(O)C(Cc1cnc[nH]1)N=Cc1nc(-c2ccccc2)oc1O (stereo not drawn)", "OVCAR-4 ovarian", "> 100 µM"),
    ("O=C(O)c1cncc(C(=O)O)c1", "OVCAR-4 ovarian", "> 100 µM"),
    ("O=C(CC/C(CC(=O)c1ccc(Cl)cc1)=N/O)Nc1ccc(Cl)c(Cl)c1", "OVCAR-4 ovarian", "> 100 µM"),
    ("O=C1/C(=C/c2ccc(Cl)cc2)N=C(c2ccccc2)N1C1Nc2cc3c(cc2S1)NC(N1C(=O)/C(=C/c2ccc(Cl)cc2)N=C1c1ccccc1)S3 (stereo not drawn)", "OVCAR-4 ovarian", "> 100 µM"),
    ("CCOP(=O)(OCC)/C(C#N)=C/c1ccc[nH]1", "OVCAR-4 ovarian", "> 100 µM"),
    ("CN(C)CCCNC(=O)c1cc(NC(=O)c2cc(NC(=O)[C@H]3C[C@@H]3C(=O)Nc3cc(C(=O)Nc4cc(C(=O)NCCCN(C)C)n(C)c4)n(C)c3)cn2C)cn1C", "OVCAR-4 ovarian", "> 100 µM"),
    ("BrCCC[P+](c1ccccc1)(c1ccccc1)c1ccccc1", "OVCAR-4 ovarian", "> 100 µM"),
    ("Cc1ccc(-c2nc3c(C(=O)NCCN(C)C)cccc3[nH]2)cc1", "OVCAR-4 ovarian", "85.3 µM"),
    ("CC1CC(C)/C(=N/NC(N)=O)C(C(O)CC2CCC(=O)NC2=O)C1 (stereo not drawn)", "OVCAR-4 ovarian", "> 100 µM"),
    ("O=C1Cc2ccccc2N1c1c(Cl)cccc1Cl", "OVCAR-4 ovarian", "> 100 µM"),
    ("COc1cc(-c2c3c([nH]c(=O)c2C#N)-c2cc([N+](=O)[O-])ccc2CCC3)cc(OC)c1OC", "OVCAR-4 ovarian", "> 100 µM"),
    ("Cc1cc(NCCCCNc2ccnc3cc(Cl)ccc23)nc(Nc2ccc(C(=O)N3CCCC3)cc2)n1", "OVCAR-4 ovarian", "11 µM"),
    ("COC(=O)c1c(C)cc2c(c1O)C1(O)C(=O)c3cc4c(c(O)c3C(=O)C1(OC)C(O)C2)C(=O)C=C(NC1OC(C)C(OC)C(O)C1OC)C4=O (stereo not drawn)", "OVCAR-4 ovarian", "0.213 µM"),
    ("Cn1c(=O)c2nc3nnc(C#N)c(N)n3c2n(C)c1=O", "OVCAR-4 ovarian", "> 100 µM"),
    ("Cn1c(=O)c2c(ncn2CCSS(=O)(=O)O)n(C)c1=O", "OVCAR-4 ovarian", "> 100 µM"),
    ("Cc1nc2c(n1CCC(C)C)C(=O)c1ccccc1C2=O", "OVCAR-4 ovarian", "> 100 µM"),
]

Source of measurements: PubChem BioAssay (NCI)
